- Tested on: Bacillus subtilis DB104 (SP-AmyQ fusion secretion)
- Protocol Notes: AmyQ secretion efficiency, weighted average sort bin (1 = best secretion, 10 = worst) (bin number (weighted average, 1-10)); higher = lower secretion efficiency
Measured AmyQ secretion efficiency of individual entries
Property Name: AmyQ secretion efficiency

[[record]]
primary_sequence = "MRKNRILALFVLSLGLLSFMVTPVSRASK"
property_name = "AmyQ secretion efficiency"
measured = 8.98

[[record]]
primary_sequence = "MKKVLMAFIICLSLILSVLAAPPSGSAVSAKAESV"
property_name = "AmyQ secretion efficiency"
measured = 2.05

[[record]]
primary_sequence = "MKRKKLCLWFTVFSLFLVLLPGKALGAVD"
property_name = "AmyQ secretion efficiency"
measured = 4.65

[[record]]
primary_sequence = "MKLWMRKTLVVLFLIVFFFLGTVSPPAALMADKP"
property_name = "AmyQ secretion efficiency"
measured = 3.95

[[record]]
primary_sequence = "MNKKYGVLIVCIIFTSALFPTFSSVTAAQG"
property_name = "AmyQ secretion efficiency"
measured = 1.02

[[record]]
primary_sequence = "MKLSVKIAGVLTVAAAAMTAKMYGTAKGN"
property_name = "AmyQ secretion efficiency"
measured = 5.59

[[record]]
primary_sequence = "MIAYFGKCGYKYGRTRLGVLFGMQQANHG"
property_name = "AmyQ secretion efficiency"
measured = 8.61

[[record]]
primary_sequence = "MTMLLAAGIIGLLTVSIASPSFAAEK"
property_name = "AmyQ secretion efficiency"
measured = 5.35

[[record]]
primary_sequence = "MNLRKILLSSALSLGMLVSAAPVLQTSS"
property_name = "AmyQ secretion efficiency"
measured = 5.33

[[record]]
primary_sequence = "MRSKKLWISLLFALTLIFTMAFSNMSAQAAGQ"
property_name = "AmyQ secretion efficiency"
measured = 2.13

[[record]]
primary_sequence = "MKKRLIAPMLLSAASLAFFAMSGSAQYAAY"
property_name = "AmyQ secretion efficiency"
measured = 6.56

[[record]]
primary_sequence = "MRPVFPLILSAVLFLSCFFGARQTEASKSKR"
property_name = "AmyQ secretion efficiency"
measured = 2.19

[[record]]
primary_sequence = "MKKSQYFIVFICFFVLFSVHPIALAAADS"
property_name = "AmyQ secretion efficiency"
measured = 3.9

